# credit: ChEMBL document CHEMBL1201862

Biological target: Prothrombin (Bos taurus, UniProt P00735)
Experiment: thrombin inhibition, dose response, biochemical, fluorescence polarization, uHTS hits (AID 602369)
Type: functional
Active and inactive are the calls of the source.
measured_property: IC50

1) Cc1csc(NC(=O)CSc2nc3sc(C)c(C)c3c(=O)[nH]2)n1 : 43.6 µM (active)
2) CC(NC(=O)C1CCN(C(=O)c2cccs2)CC1)c1ccc(S(N)(=O)=O)cc1 (centres undefined) : > 100 µM (inactive)
3) O=C(O)c1ccc(NC(=S)NC(=O)c2ccc(-c3ccc(Br)cc3)o2)cc1 : 60.7 µM (active)
4) Nc1nc(SCc2ccc(Cl)cc2Cl)nc2nc3c(cc12)CCCC3 : 39.2 µM (active)

* * *

Biological target: Carboxy-terminal domain RNA polymerase II polypeptide A small phosphatase 1 (Homo sapiens)
Sequence (Q9GZU7 whole entry): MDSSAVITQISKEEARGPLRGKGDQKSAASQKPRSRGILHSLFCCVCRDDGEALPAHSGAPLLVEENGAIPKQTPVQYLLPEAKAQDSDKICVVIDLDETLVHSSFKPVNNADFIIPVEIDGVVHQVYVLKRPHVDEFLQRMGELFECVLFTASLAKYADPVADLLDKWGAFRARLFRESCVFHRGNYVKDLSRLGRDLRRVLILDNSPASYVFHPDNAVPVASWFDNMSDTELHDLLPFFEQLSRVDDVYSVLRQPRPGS
Test: inhibitors of CTDSP1, concentration-response testing, biochemical assay, absorbance-based, actives from ultra-high-throughput screening (AID 540297)
Assay type: functional
Active and inactive are the calls of the source.
measured_property: IC50

1. Cc1ccc(C=C2C(=O)c3ccccc3C2=O)o1 : 6.25 µM (active)
2. O=C(O)/C(=C\c1cccc([N+](=O)[O-])c1)c1ccc(S(=O)(=O)N2CCCCC2)s1 : 9.53 µM (active)
3. COc1ccc(C(=O)OCC(=O)NCc2ccco2)cc1OC : 9.73 µM (active)
4. O=C(O)C1CC(=O)N(c2ccc3c(c2)OCCO3)C1 (configuration not stated) : 6.73 µM (active)
5. O=S(=O)(Nc1ccccc1Cl)c1cccc2nsnc12 : 11.2 µM (active)
6. Cn1cnc(C(=O)N2CCN(c3ccccc3)CC2)c1C(=O)N1CCN(c2ccccc2)CC1 : 7.05 µM (active)
7. Cc1cc(=O)oc2cc(NC(=O)c3ccc(OC(F)F)cc3)ccc12 : 10.2 µM (active)

* * *

Listed below: EC50 values for each entry.
Test: cytotoxicity toward DRD oncogenic fibroblasts, dose response, cell-based, non-viral oncogenic, luminescence (AID 1934)
Assay type: functional
Conditions: Homo sapiens
Calls of active or inactive are those of the source.
measured_property: EC50

1) CNC[C@@H](CC1CCCCC1)NC[C@H](CC(C)C)NCCc1cccc(C(F)(F)F)c1 : 4.69 µM (active)
2) Cc1ccc(/N=C/c2c(C)[nH]n(-c3nc4ccccc4[nH]3)c2=O)cc1 : 2.83 µM (active)
3) COc1ccccc1C1C2=C(O)OCC2=Nc2cc3c(cc21)OCO3 (stereo not given) : 9.6 µM (inconclusive)
4) C=C1C(=O)C=C2CN(C(=O)c3ccccc3)[C@@](Cc3ccc(F)cc3)(C(=O)OC)[C@@H]12 : 0.662 µM (active)
5) CN(C)c1nc(C=C(C#N)C#N)c(Cl)n1-c1ccc(F)cc1 : 4.24 µM (active)
